Measured Ki, listed per entry for reference.
TARGET OF ASSAY: Estrogen receptor (Homo sapiens)
Sequence (P03372 whole entry): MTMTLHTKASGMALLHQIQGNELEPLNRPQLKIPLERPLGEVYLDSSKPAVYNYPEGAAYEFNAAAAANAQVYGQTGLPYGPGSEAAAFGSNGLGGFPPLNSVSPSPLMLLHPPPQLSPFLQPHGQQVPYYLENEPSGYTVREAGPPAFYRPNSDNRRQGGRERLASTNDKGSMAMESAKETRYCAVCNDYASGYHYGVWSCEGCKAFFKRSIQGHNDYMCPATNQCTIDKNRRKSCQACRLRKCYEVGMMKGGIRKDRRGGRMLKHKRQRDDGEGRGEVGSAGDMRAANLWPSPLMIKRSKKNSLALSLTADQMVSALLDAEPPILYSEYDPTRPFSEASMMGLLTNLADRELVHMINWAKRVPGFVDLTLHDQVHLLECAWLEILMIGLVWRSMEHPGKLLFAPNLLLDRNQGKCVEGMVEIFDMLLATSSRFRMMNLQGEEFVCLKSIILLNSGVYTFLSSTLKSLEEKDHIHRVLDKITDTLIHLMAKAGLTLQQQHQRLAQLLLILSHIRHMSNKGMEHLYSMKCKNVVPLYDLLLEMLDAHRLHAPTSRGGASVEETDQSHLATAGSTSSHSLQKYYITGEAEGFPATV
MEASURED METRIC: Ki

[[record]]
mol = "Oc1cccc([C@H]2Oc3ccc(O)cc3[C@H]3CCC[C@H]32)c1"
test_value = "65 nM"

[[record]]
mol = "Oc1ccc([C@H]2Oc3ccc(O)cc3[C@H]3CCCCC[C@H]32)cc1"
test_value = "6.11 nM"

[[record]]
mol = "Oc1ccc([C@H]2Oc3cccc(O)c3[C@H]3CCC[C@H]32)cc1"
test_value = "0.35 nM"

[[record]]
mol = "Oc1ccc([C@H]2Oc3ccc(O)cc3[C@H]3CCCC[C@H]32)cc1"
test_value = "2.88 nM"


====

TARGET OF ASSAY: Estrogen receptor beta (Homo sapiens, UniProt Q92731)
Sequence (Q92731 whole entry): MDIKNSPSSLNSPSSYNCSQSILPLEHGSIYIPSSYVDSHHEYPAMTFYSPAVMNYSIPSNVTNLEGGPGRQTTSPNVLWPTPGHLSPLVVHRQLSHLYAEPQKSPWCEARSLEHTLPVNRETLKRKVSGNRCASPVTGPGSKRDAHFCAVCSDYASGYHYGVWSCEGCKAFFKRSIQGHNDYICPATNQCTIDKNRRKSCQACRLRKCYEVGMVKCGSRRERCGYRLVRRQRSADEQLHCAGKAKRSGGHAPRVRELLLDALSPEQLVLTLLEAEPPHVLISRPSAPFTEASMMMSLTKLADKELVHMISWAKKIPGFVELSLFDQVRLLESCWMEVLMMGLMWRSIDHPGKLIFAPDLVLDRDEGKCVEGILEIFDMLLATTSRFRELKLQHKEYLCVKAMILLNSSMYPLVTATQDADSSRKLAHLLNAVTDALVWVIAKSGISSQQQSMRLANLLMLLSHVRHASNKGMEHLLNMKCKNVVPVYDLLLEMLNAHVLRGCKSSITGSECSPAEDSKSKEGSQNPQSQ
Cut-off 20 nM on Ki: below means Condition met, at or above means Condition not met.

[[record]]
mol = "Oc1ccc([C@H]2Oc3ccc(O)cc3[C@H]3CCCC[C@H]32)cc1"
group_label = "Condition met"

[[record]]
mol = "Oc1ccc([C@H]2Oc3cc(O)ccc3[C@H]3CCC[C@H]32)cc1"
group_label = "Condition met"

[[record]]
mol = "Oc1ccc([C@@H]2CCc3cc(O)ccc3O2)cc1"
group_label = "Condition not met"

[[record]]
mol = "Oc1ccc([C@H]2Oc3cccc(O)c3[C@H]3CCC[C@H]32)cc1"
group_label = "Condition met"

[[record]]
mol = "Oc1ccc([C@H]2Oc3ccccc3[C@H]3CCC[C@H]32)cc1"
group_label = "Condition not met"

[[record]]
mol = "Oc1ccc([C@H]2Oc3ccc(O)cc3[C@H]3CCCCC[C@H]32)cc1"
group_label = "Condition met"

